Tested on: Hara (NRF2 pathway wild type cell line with low AKR1C3 expression)
experimental_protocol: In vitro cell proliferation assay (CellTiter-Glo), Hara
Type: cell-based
reported_conditions: 72 h; Hara cells, 3 days, CellTiter-Glo, top concentration 10 μM; read-out: HARA Qualified absolute AC50
property: AC50

Cc1ccc(CNC(=O)N2CCC3(CC2)CC(=O)c2cc(F)cc(F)c2N3)s1 [Example 123]; 5.39 µM
NC(=O)Cc1cc(CNC(=O)N2CCC3(CC2)CC(=O)c2cc(F)ccc2N3)ccc1F [Example 103]; > 10 µM
O=C1CC2(CCN(C(=O)NCc3ccc(F)c(CO)c3)CC2)Nc2c(F)cc(F)cc21 [Example 132]; > 10 µM
Nc1c(F)ccc(CNC(=O)N2CCC3(CC2)CC(=O)c2cc(F)ccc2N3)c1F [Example 84]; > 10 µM
Nc1ccc(CNC(=O)N2CCC3(CC2)CC(=O)c2cc(F)ccc2N3)c(Cl)c1 [Example 111]; > 10 µM
O=C(NCCO)c1cc(CNC(=O)N2CCC3(CC2)CC(=O)c2cc(F)ccc2N3)ccc1F [Example 48]; 7.96 µM
CCNc1cc(F)ccc1CNC(=O)N1CCC2(CC1)CC(=O)c1cc(F)ccc1N2C [Example 52]; > 10 µM
O=C1CC2(CCN(C(=O)NCc3cnoc3)CC2)Nc2ccc(F)cc21 [Example 107]; > 10 µM

---

System: H460 (NRF2 pathway mutant cell line with high AKR1C3 expression)
experimental_protocol: In vitro cell proliferation assay (CellTiter-Glo), H460
Type: cell-based
reported_conditions: Homo sapiens, NCI-H460, 72 h; H460 cells, 3 days, CellTiter-Glo, top concentration 10 μM; read-out: H460 Qualified absolute AC50
# key: entry, value: AC50
property: AC50

Nc1ccc(CNC(=O)N2CCC3(CC2)C[C@H](O)c2cc(F)ccc2N3)cc1F (single isomer, unassigned) [Example 170b]; ≥ 17300 nM
NC(=O)c1cc(CNC(=O)N2CCC3(CC2)CC(=O)c2cc(F)ccc2N3)ccc1F; 46 nM
CN1c2ccc(F)cc2C(O)CC12CCN(C(=O)NCc1cc(NCCO)c(F)cc1F)CC2 (racemic); 49 nM
O=C1CC2(CCN(C(=O)NCc3ccc(F)c(OCCO)c3)CC2)Nc2ccc(F)cc21; 238 nM
Cc1cc(CNC(=O)N2CCC3(CC2)CC(=O)c2cc(F)ccc2N3)c(C(F)(F)F)o1; 1430 nM
CN(C)CCNC(=O)c1cc(CNC(=O)N2CCC3(CC2)CC(=O)c2cc(F)ccc2N3)ccc1F; 352 nM
C#CCNC(=O)c1cc(CNC(=O)N2CCC3(CC2)CC(=O)c2cc(F)ccc2N3)ccc1F; 1480 nM
CCN1c2ccc(F)cc2C(=O)CC12CCN(C(=O)NCc1ccc(F)c(NCCO)c1F)CC2; 306 nM
COc1cc(F)ccc1CNC(=O)N1CCC2(CC1)CC(=O)c1cc(F)ccc1N2C; 5 nM
COCCNc1cc(F)ccc1CNC(=O)N1CCC2(CC1)CC(=O)c1cc(F)ccc1N2C; 33 nM
CN1c2ccc(F)cc2C(=O)CC12CCN(C(=O)NCc1ccc(F)c(NS(C)(=O)=O)c1)CC2; 150 nM
COC1CN(c2cc(CNC(=O)N3CCC4(CC3)CC(=O)c3cc(F)ccc3N4)ccc2F)C1; 555 nM
